Reported IC50 at 48 h by item:
PROCEDURE_TEXT: Cytotoxicity against […] MLO-Y4 cells assessed as cell viability incubated for 48 hrs by MTT assay
Format: toxicity, cell-based
MEASUREMENT_PARAMETERS: mouse
Number in µM, nothing else.

>>> print(df.to_string())
                                 mol_smiles  test_readout  reading
0  COc1cc(OC)c(C(=O)/C=C/c2cccc(Br)c2)c(OC)c1  IC50 at 48 h     12.3
1     COc1ccc(C(=O)/C=C/c2cccc(Br)c2)c(O)c1  IC50 at 48 h     7.93
2  COc1cc(O)c(C(=O)/C=C/c2cccc(Br)c2)c(OC)c1  IC50 at 48 h     19.6

Attention now shifts to the item below.
Query block: Param item = "O=C(/C=C/c1cccc(Br)c1)c1ccc2c(c1)OCCO2" ; retrieve measured IC50 at 48 h.
Result block: 76.5
